Collected TLR7-wt_LEC values appear next to each entry.
system_name: human TLR7 (wild type sequence) (Homo sapiens, UniProt Q9NYK1)
Construct: expressed in transfected cells; host or cells: HEK293
Sequence (Q9NYK1 27-1049): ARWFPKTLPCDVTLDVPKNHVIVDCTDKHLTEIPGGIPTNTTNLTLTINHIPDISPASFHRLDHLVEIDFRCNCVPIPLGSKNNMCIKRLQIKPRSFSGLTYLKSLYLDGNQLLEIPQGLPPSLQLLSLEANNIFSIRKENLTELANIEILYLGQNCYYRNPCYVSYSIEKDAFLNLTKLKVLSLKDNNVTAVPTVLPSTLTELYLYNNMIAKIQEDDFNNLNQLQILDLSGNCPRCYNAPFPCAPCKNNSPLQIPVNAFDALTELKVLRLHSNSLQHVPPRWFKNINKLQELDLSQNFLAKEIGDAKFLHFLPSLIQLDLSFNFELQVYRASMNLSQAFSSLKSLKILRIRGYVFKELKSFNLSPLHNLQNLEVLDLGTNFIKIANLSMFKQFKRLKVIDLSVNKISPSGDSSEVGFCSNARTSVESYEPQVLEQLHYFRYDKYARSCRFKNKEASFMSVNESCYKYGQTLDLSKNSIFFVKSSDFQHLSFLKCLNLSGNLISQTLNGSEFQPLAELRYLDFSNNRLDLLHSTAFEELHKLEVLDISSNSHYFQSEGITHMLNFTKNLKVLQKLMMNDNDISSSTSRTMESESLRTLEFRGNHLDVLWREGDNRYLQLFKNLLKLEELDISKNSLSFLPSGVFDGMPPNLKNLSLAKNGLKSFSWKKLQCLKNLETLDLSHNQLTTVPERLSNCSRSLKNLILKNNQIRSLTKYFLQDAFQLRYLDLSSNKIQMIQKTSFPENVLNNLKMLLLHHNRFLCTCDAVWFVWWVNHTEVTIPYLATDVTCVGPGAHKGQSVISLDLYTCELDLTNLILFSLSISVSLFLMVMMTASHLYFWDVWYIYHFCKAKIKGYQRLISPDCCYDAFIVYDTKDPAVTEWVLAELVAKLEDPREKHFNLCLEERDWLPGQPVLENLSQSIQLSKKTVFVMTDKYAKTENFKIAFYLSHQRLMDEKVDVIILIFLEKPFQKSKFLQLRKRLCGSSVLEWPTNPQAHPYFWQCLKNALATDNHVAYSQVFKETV
test: TLR7 cellular NFκB-luc reporter assay, wild type TLR7
Format: cell-based
Set-up: unit not given here
assay_conditions: lowest effective concentration, wild type TLR7
Just the number.

## Task Quote human TLR7 (wild type sequence) (Homo sapiens, UniProt Q9NYK1) TLR7-wt_LEC for entry CCCC[C@@H](CO)Nc1nc(N)ncc1OCc1nccc(OC)c1OC [Compound 217] .
## Result 0.106

## Task Quote human TLR7 (wild type sequence) (Homo sapiens, UniProt Q9NYK1) TLR7-wt_LEC for entry CCCC[C@@H](CCO)Nc1nc(N)ncc1OCc1c[nH]nn1 [Compound 298] .
## Result 0.394

## Task Quote human TLR7 (wild type sequence) (Homo sapiens, UniProt Q9NYK1) TLR7-wt_LEC for entry CCCCNc1nc(N)ncc1OCc1cc2ccccn2n1 [Compound 224] .
## Result 0.206

## Task Quote human TLR7 (wild type sequence) (Homo sapiens, UniProt Q9NYK1) TLR7-wt_LEC for entry CCCCNc1nc(N)ncc1OCc1cn2ccccc2n1 [Compound 209] .
## Result 0.074

## Task Quote human TLR7 (wild type sequence) (Homo sapiens, UniProt Q9NYK1) TLR7-wt_LEC for entry CCC[C@@H](CO)Nc1nc(N)ncc1OCCCc1ccc2c(c1)OCO2 [Compound 204] .
## Result 0.791

## Task Quote human TLR7 (wild type sequence) (Homo sapiens, UniProt Q9NYK1) TLR7-wt_LEC for entry CCCC[C@@H](CCO)Nc1nc(N)ncc1OCc1cccc(C(N)=O)n1 [Compound 282] .
## Result 0.133

## Task Quote human TLR7 (wild type sequence) (Homo sapiens, UniProt Q9NYK1) TLR7-wt_LEC for entry CCC[C@H](C)Nc1nc(N)ncc1OCc1nccc(OC)c1OC [Compound 263] .
## Result 0.049

## Task Quote human TLR7 (wild type sequence) (Homo sapiens, UniProt Q9NYK1) TLR7-wt_LEC for entry CCC[C@@H](C)Nc1nc(N)ncc1OCc1nccc(OC)c1OC [Compound 252] .
## Result 4.020

## Task Quote human TLR7 (wild type sequence) (Homo sapiens, UniProt Q9NYK1) TLR7-wt_LEC for entry CCCC[C@@H](CCO)Nc1nc(N)ncc1OCc1ccncc1 [Compound 291] .
## Result 0.120

###

system_name: human TLR8 (wild type sequence) (Homo sapiens)
Construct: expressed in transfected cells; host or cells: HEK293
Sequence (Q9NR97 27-1041): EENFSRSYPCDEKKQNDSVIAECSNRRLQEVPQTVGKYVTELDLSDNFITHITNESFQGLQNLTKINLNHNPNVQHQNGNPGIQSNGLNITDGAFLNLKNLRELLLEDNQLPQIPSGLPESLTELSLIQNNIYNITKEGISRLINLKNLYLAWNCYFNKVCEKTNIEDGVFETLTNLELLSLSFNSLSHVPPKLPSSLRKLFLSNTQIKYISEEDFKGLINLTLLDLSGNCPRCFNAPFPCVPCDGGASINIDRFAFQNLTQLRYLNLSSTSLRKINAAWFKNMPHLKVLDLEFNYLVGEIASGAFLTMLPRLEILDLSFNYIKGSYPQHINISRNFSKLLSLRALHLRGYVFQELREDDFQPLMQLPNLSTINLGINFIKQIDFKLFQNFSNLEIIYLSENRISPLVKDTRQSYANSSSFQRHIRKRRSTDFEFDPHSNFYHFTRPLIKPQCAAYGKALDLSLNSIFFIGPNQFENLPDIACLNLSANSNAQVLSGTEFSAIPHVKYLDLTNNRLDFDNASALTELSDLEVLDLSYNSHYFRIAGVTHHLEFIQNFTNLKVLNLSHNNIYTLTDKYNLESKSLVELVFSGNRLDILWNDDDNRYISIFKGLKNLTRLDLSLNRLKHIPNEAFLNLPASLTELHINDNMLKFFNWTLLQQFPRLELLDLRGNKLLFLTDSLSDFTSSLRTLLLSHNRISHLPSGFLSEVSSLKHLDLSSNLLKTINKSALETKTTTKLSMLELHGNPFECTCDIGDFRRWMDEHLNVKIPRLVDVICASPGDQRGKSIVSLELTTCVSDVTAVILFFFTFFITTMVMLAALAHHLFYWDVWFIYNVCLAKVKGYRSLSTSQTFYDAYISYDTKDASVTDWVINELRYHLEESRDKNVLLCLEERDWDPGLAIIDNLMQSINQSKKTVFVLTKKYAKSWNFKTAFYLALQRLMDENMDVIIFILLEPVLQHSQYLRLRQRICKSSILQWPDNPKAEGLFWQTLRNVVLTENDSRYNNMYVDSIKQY
test: TLR8 cellular NFκB-luc reporter assay, wild type TLR8
Assay type: cell-based
Set-up: unit not given here
assay_conditions: lowest effective concentration, wild type TLR8 (compounds 1-73)
Label satisfied for high-side TLR8-wt_LEC (at or above 2) and not satisfied for low-side TLR8-wt_LEC (below it).

CCCCNc1nc(N)ncc1OCc1nccc(OC)c1OC	not satisfied

## Task hey, is TLR8-wt_LEC for this one >= 2? CCCCNc1nc(N)ncc1OCCc1ccccc1
## Result satisfied

## Task hey, is TLR8-wt_LEC for this one >= 2? CCCCNc1nc(N)ncc1OCc1cc(C)nn1C
## Result not satisfied

## Task hey, is TLR8-wt_LEC for this one >= 2? CCCCNc1nc(N)ncc1OCc1ccc(C(=O)OC)cc1
## Result not satisfied

## Task hey, is TLR8-wt_LEC for this one >= 2? CCCCNc1nc(N)ncc1OCc1cncn1C(C)c1ccccc1 (stereo not shown)
## Result satisfied

## Task hey, is TLR8-wt_LEC for this one >= 2? CCCCCNc1nc(N)ncc1OCC
## Result satisfied

## Task hey, is TLR8-wt_LEC for this one >= 2? CCCCNc1nc(N)ncc1OCc1cccc(C(F)(F)F)c1
## Result satisfied

## Task hey, is TLR8-wt_LEC for this one >= 2? CCCCNc1nc(N)ncc1OCc1occ(C(=O)OC)c1C(=O)OC
## Result satisfied

## Task hey, is TLR8-wt_LEC for this one >= 2? CCCCNc1nc(N)ncc1OCc1cc(C)no1
## Result satisfied

## Task hey, is TLR8-wt_LEC for this one >= 2? CCC[C@@H](CO)Nc1nc(N)ncc1OC
## Result not satisfied
